assay: solvent given as SMILES; conditions: in CCCCCCC
observable: emission maximum

Known emission maximum results, listed for orientation:
>  <molecule>
c1ccc2cc3c4c(ccc3cc2c1)-c1cccc2cccc-4c12

>  <reading>
520 nm

$$$$
>  <molecule>
FC(F)(F)c1ccc(/C=C/c2nc(/C=C/c3ccc(N(c4ccccc4)c4ccccc4)cc3)cc(/C=C/c3ccc(N(c4ccccc4)c4ccccc4)cc3)n2)cc1

>  <reading>
467 nm

$$$$
>  <molecule>
CC1(C)CC(=O)C2=C(C1)Oc1ccc3cc(O)ccc3c1C2c1ccccn1 (stereo not drawn)

>  <reading>
359 nm

$$$$
>  <molecule>
COc1ccc(/C=C/c2cc(/C=C/c3ccc(OC)cc3)nc(/C=C/c3ccc(C(F)(F)F)cc3)n2)cc1

>  <reading>
398 nm

$$$$
>  <molecule>
C(=C\c1cnc2ccccc2n1)/c1ccc(N2CCCCC2)cc1

>  <reading>
480 nm

$$$$

Item "CC(C)CCC[C@@H](C)[C@H]1CC[C@H]2[C@@H]3CC=C4C[C@@H](OC(=O)Oc5cc(/C=C/c6ccc(N(C)C)cc6)ccc5[N+](=O)[O-])CC[C@]4(C)[C@H]3CC[C@]12C" has what recorded emission maximum?
503 nm

Item "CCN(CC)c1ccc2ccc(=O)oc2c1" has what recorded emission maximum?
390 nm

Item "Cc1nn(-c2ccccc2)c(C2=NN(c3ccc(Br)cc3)[C@@H](c3ccccc3)[C@@H]2c2ccccc2)c1C#N" has what recorded emission maximum?
467 nm
